Source: the supplement of paper PMC10567573

B1: TRIM15 (parent)
chain: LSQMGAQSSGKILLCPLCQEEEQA

- Variants of: B1
- methodNotes: protein stability index of a GFP-peptide fusion (GPS, HEK-293T) (PSI 1-6); higher = more stable;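 note: lentivirally expressed fusions sorted by FACS into six bins by GFP to DsRed ratio, PSI derived from sequencing read proportions per bin multiplied by bin number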
- testParameters: c terminus: a fixed tail appended
This section presents variants with their documented protein stability index values.
Answer with a number only.

Solved cases (10 shown):
[[record]]
mutation = "I12V"
measuredendpoint = "protein stability index"
observed = 4.5

[[record]]
mutation = "P16H"
measuredendpoint = "protein stability index"
observed = 3.8

[[record]]
mutation = "S9C"
measuredendpoint = "protein stability index"
observed = 3.86

[[record]]
mutation = "L17A"
measuredendpoint = "protein stability index"
observed = 3.63

[[record]]
mutation = "S9L"
measuredendpoint = "protein stability index"
observed = 3.4

[[record]]
mutation = "E21R"
measuredendpoint = "protein stability index"
observed = 2.48

[[record]]
mutation = "A6D"
measuredendpoint = "protein stability index"
observed = 3.75

[[record]]
mutation = "Q3I"
measuredendpoint = "protein stability index"
observed = 3.11

[[record]]
mutation = "E22N"
measuredendpoint = "protein stability index"
observed = 4.15

[[record]]
mutation = "M4I"
measuredendpoint = "protein stability index"
observed = 3.82


*Q* Which protein stability index is listed for `E22C` ?
*A* 2.82

*Q* Also check `A24E`
*A* 3.29

*Q* Also check `L1E`
*A* 3.99

*Q* Also check `S8I`
*A* 3.14

*Q* Also check `C15E`
*A* 5.1

*Q* Also check `Q7L`
*A* 2.8

*Q* Also check `Q23G`
*A* 3.47

*Q* Also check `L14M`
*A* 3.98

*Q* Also check `L17R`
*A* 4.31
